Some compounds, each annotated with its measured LBPA endosome anti-LBPA integrated intensity (z-score).
system: HeLa MZ; test: LBPA endosome anti-LBPA integrated intensity (sum per cell), Z-score; higher = more LBPA staining; settings: compound concentration in added solution (µM; 5 µl added to 20 µl cells): 10; 18 h
Counter-ions that a name gives are not always drawn.
Please respond with just the number, no unit label.

// below: answered compounds
>>> numericresult("CN(C)CCOC(=O)COc1ccc(Cl)cc1 [Meclofenoxate hydrochloride]")
-0.858
>>> numericresult("CCN(CC)CCNC(=O)COc1ccc(OC)cc1 [Mefexamide hydrochloride]")
0.346
>>> numericresult("C#C[C@]1(O)CC[C@H]2[C@@H]3CCC4=CC(=O)CC[C@@H]4[C@H]3CC[C@@]21C [Norethindrone]")
-0.0403
>>> numericresult("COc1ccc2cc([C@H](C)C(=O)O)ccc2c1 [Naproxen]")
-0.655
>>> numericresult("CN(C)CCCC1(c2ccc(F)cc2)OCc2cc(C#N)ccc21 (stereo not given) [Citalopram Hydrobromide]")
1.58
>>> numericresult("CN(C)CCN(Cc1ccc(Cl)cc1)c1ccccn1 [Chloropyramine hydrochloride]")
4.98
>>> numericresult("CO[C@H]1/C=C/O[C@@]2(C)Oc3c(C)c(O)c4c(O)c(c5c(nc6cc(C)ccn65)c4c3C2=O)NC(=O)/C(C)=C\\C=C\\[C@H](C)[C@H](O)[C@@H](C)[C@@H](O)[C@@H](C)[C@H](OC(C)=O)[C@@H]1C [Rifaximin]")
-0.154
>>> numericresult("CN(C)CCOC(C)(c1ccccc1)c1ccccn1 (stereo not given) [Doxylamine succinate]")
0.575

Report LBPA endosome anti-LBPA integrated intensity (z-score) for COc1ccc(-c2cc(=S)ss2)cc1 [Anethole-trithione] please.
-0.179

Requested read-out: LBPA endosome anti-LBPA integrated intensity (z-score). Entry: CCCOc1cc(N)ccc1C(=O)OCCN(CC)CC [Propoxycaine hydrochloride]
1.24

====

test system: HeLa MZ; assay: whole-cell filipin (free cholesterol) integrated intensity, Z-score; higher = more cholesterol staining; conditions: compound concentration in added solution (µM; 5 µl added to 20 µl cells): 10; 18 h
Structures can show the parent of a compound that is named as a salt.
Think of 0.1 as a floor: if whole-cell filipin (z-score) stands on it or above, it is criterion met; beneath it, criterion not met.

These solved cases illustrate the format of a correct answer.
>>> qualitativelabel("CC[C@H](C)[C@H](N)C1=N[C@H](C(=O)N[C@@H](CC(C)C)C(=O)N[C@H](CCC(=O)O)C(=O)N[C@H](C(=O)N[C@H]2CCCCNC(=O)[C@H](CC(N)=O)NC(=O)[C@@H](CC(=O)O)NC(=O)[C@H](Cc3cnc[nH]3)NC(=O)[C@@H](Cc3ccccc3)NC(=O)[C@H]([C@@H](C)CC)NC(=O)[C@@H](CCCN)NC2=O)[C@@H](C)CC)CS1")
"criterion met"
>>> qualitativelabel("C[C@]12CCC(=O)C=C1CC[C@@H]1[C@@H]2[C@@H](O)C[C@@]2(C)[C@H]1CC[C@]2(O)C(=O)CO [Hydrocortisone base]")
"criterion not met"
>>> qualitativelabel("CNCCC=C1c2ccccc2C=Cc2ccccc21")
"criterion met"
>>> qualitativelabel("CN(C)CCCC1(c2ccc(F)cc2)OCc2cc(C#N)ccc21 (stereo not given) [Citalopram Hydrobromide]")
"criterion met"
>>> qualitativelabel("COc1cc2ncnc(Nc3ccc(F)c(Cl)c3)c2cc1OCCCN1CCOCC1")
"criterion met"
>>> qualitativelabel("CCN(CC)C(=O)/C(C#N)=C/c1cc(O)c(O)c([N+](=O)[O-])c1")
"criterion not met"

In plain terms: is recorded whole-cell filipin (z-score) at least 0.1 for CN(Cc1cnc2nc(N)nc(N)c2n1)c1ccc(C(=O)N[C@@H](CCC(=O)O)C(=O)O)cc1 (racemic) [Amethopterin (R,S)] ?
criterion met

# bool: whole-cell filipin (z-score) of CN1CCC(=C2c3ccccc3CC(=O)c3sccc32)CC1 [Ketotifen fumarate] >= 0.1
criterion not met

hey, is whole-cell filipin (z-score) for this one >= 0.1? CCc1ccc(CCOc2ccc(CC3SC(=O)NC3=O)cc2)nc1 (stereo not given)
criterion not met

Exam item: decide whether the reported whole-cell filipin (z-score) for Nc1ccc(S(=O)(=O)Nc2cnc3ccccc3n2)cc1 [Sulfaquinoxaline sodium salt] is at least 0.1.
criterion not met

Decide: whole-cell filipin (z-score) of CN(C)[C@@H]1C(O)=C(C(N)=O)C(=O)[C@@]2(O)C(O)=C3C(=O)c4c(O)cccc4[C@@](C)(O)[C@H]3[C@H](O)[C@@H]12 [Oxytetracycline dihydrate] >= 0.1?
criterion not met

Item C#C[C@]1(O)CC[C@H]2[C@@H]3CCC4=CC(=O)CC[C@@H]4[C@H]3CC[C@@]21CC [Norgestrel-(-)-D] with whole-cell filipin (z-score) of 0.1 or above?
criterion not met
